# TARGET: Plasmepsin V (Plasmodium falciparum (isolate 3D7), UniProt Q8I6Z5)
# Sequence (Q8I6Z5 whole entry): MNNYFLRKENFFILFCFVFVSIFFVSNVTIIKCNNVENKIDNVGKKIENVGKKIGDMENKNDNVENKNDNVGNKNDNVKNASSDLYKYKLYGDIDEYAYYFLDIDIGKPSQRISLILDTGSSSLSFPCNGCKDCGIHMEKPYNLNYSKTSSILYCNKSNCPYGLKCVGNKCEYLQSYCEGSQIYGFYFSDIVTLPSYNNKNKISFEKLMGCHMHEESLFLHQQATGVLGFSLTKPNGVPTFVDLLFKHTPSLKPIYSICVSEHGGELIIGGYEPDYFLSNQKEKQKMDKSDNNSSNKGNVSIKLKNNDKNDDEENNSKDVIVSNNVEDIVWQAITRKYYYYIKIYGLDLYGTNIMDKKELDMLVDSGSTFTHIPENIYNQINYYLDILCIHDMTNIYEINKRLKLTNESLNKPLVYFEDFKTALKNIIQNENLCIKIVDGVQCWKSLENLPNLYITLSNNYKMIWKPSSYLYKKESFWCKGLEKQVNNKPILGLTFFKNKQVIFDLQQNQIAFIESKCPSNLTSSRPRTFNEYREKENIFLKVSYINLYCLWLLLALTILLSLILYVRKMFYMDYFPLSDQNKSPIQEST
# EXPERIMENT_SUMMARY: Inhibition of Plasmodium falciparum plasmepsin V assessed as cleavage of wtKAHRP fluorogenic substrate
pIC50: −log10 of the molar value.
METRIC_NAME: pIC50

(P) CC(C)C[C@H](NC(=O)[C@H](C)NC(=O)[C@H](CCCNC(=N)N)NC(=O)OCc1ccccc1)[C@@H](O)CC(=O)NC(C)c1ccccc1 (mixture of isomers)
(Q) CC[C@H](C)[C@H](NC(=O)[C@H](CCCNC(=N)N)NC(=O)OCc1ccccc1)C(=O)N[C@@H](CC(C)C)[C@@H](O)CC(=O)NC1CCCCC1
Of P and Q , which one carries the higher reported pIC50? I would appreciate it if you answered with the label of your choice.
Q

====

# TARGET: Plasmepsin V (Plasmodium falciparum (isolate 3D7)) (UniProt Q8I6Z5)
# Sequence (Q8I6Z5 whole entry, looked up): as the sequence (Q8I6Z5 whole entry) above
# EXPERIMENT_SUMMARY: Inhibition of plasmepsin V in Plasmodium falciparum trophozoite expressing PfEMP3-GFP infected erythrocyte assessed as PEXEL processing at 20 uM by immunoblotting analysis
METRIC_NAME: Activity (OD/mm2)

CC(C)C[C@H](NC(=O)[C@H](C)NC(=O)[C@H](CCCNC(=N)N)NC(=O)OCc1ccccc1)[C@@H](O)CC(=O)NC1CCCCC1
0.2

(1) CC(C)C[C@H](NC(=O)[C@@H](NC(=O)[C@H](CCCNC(=N)N)NC(=O)OCc1ccccc1)C(C)C)[C@@H](O)CC(=O)NC1CCCCC1
(2) CC(C)C[C@H](NC(=O)[C@H](C)NC(=O)[C@H](CCCNC(=N)N)NC(=O)COCc1ccccc1)[C@@H](O)CC(=O)NCCc1ccccc1
(3) CC(C)C[C@H](NC(=O)[C@@H](NC(=O)[C@H](CCCNC(=N)N)NS(=O)(=O)Cc1ccccc1)C(C)C)[C@@H](O)CC(=O)NCCc1ccccc1
(4) CC[C@H](C)[C@H](NC(=O)[C@H](CCCNC(=N)N)NC(=O)OCc1ccccc1)C(=O)N[C@@H](CC(C)C)[C@@H](O)CC(=O)NC1CCCCC1
Task field, ranking: reported Activity, descending order. Output the labels ranked as instructed.
3, 4, 1, 2
(3: 2.76 OD/mm2, 4: 0.53 OD/mm2, 1: 0.24 OD/mm2, 2: 0.16 OD/mm2)

(a) CC(C)C[C@H](NC(=O)[C@H](CCCNC(=N)N)NC(=O)OCc1ccccc1)C(=O)N[C@@H](CC(C)C)[C@@H](O)CC(=O)NC1CCCCC1
(b) CC(C)C[C@H](NC(=O)[C@H](C)NC(=O)[C@H](CCCN)NC(=O)OCc1ccccc1)[C@@H](O)CC(=O)NC1CCCCC1
Please indicate which item has the smaller measured Activity: a versus b I would appreciate it if you answered with the label of your choice.
b
(b: 0.18 OD/mm2, a: 0.26 OD/mm2)

====

# TARGET: Plasmepsin V (Plasmodium falciparum (isolate 3D7)) (UniProt Q8I6Z5)
# EXPERIMENT_SUMMARY: Inhibition of Plasmodium falciparum plasmepsin V assessed as cleavage of wtKAHRP fluorogenic substrate at 1 uM
Numbered stars: 1 amine (or outer) side, 2 acyl side, 3 side chain; on linkers, the order of the positions; unused ones are H or OH. Square brackets hold non-standard residues; d marks the D form. Peptide text beside a SMILES is read from it. * marks the point of attachment. Sta = CC(C)C[C@H](N)[C@@H](O)CC(=O)O; NHPhenethyl = c1ccc(CCN*)cc1; CO = O=C([*:1])[*:2]
METRIC_NAME: inhibition (%)

CC(C)C[C@H](NC(=O)[C@H](C)NC(=O)[C@H](CCCNC(=N)N)NS(=O)(=O)c1ccccc1)[C@@H](O)CC(=O)NCCc1ccccc1
78

(1) CC(C)C[C@H](NC(=O)[C@H](C)NC(=O)[C@H](CCCNC(=N)N)NC(=O)OCc1ccccc1)[C@@H](O)CC(=O)N1CCC(c2ccccc2)CC1
(2) CC(C)C[C@H](NC(=O)[C@H](C)NC(=O)[C@H](CCCNC(=N)N)NC(=O)N(C)C)[C@@H](O)CC(=O)NCCc1ccccc1 ({NMe2-CO}-Arg-Ala-[Sta]-NHPhenethyl)
(3) CC(C)C[C@H](NC(=O)[C@H](C)NC(=O)[C@H](CCCNC(=N)N)NC(=O)C1CCCCC1)[C@@H](O)CC(=O)NCCc1ccccc1
With regard to inhibition, arrange the entries in ascending order, please. Output the labels ranked as instructed.
1, 3, 2
(1: 13%, 3: 43%, 2: 65%)

====

We begin with a simple list: items and their reported pIC50.
# TARGET: Plasmepsin V (Plasmodium falciparum (isolate 3D7))
# EXPERIMENT_SUMMARY: Inhibition of Plasmodium falciparum plasmepsin V assessed as cleavage of wtKAHRP fluorogenic substrate
pIC50: −log10 of the molar value.

Past entries and their recorded results:
CC(C)C[C@H](NC(=O)[C@H](C)NC(=O)[C@H](CCCN)NC(=O)OCc1ccccc1)[C@@H](O)CC(=O)NC1CCCCC1
< 4.70
CC(C)C[C@H](NC(=O)[C@H](C)NC(=O)[C@H](CCCCN)NC(=O)OCc1ccccc1)[C@@H](O)CC(=O)NC1CCCCC1
< 4.70

Proceeding to the next molecule to report its pIC50.
Suppose we examine the molecule C[C@H](NC(=O)[C@H](CCCNC(=N)N)NC(=O)OCc1ccccc1)C(=O)N[C@@H](Cc1ccccc1)[C@@H](O)CC(=O)NC1CCCCC1 ; what pIC50 value has been reported?
< 4.70

Data provenance is ChEMBL document CHEMBL3352063.
